Ref: patent US6794397B2

# Test system: T47D
# assay summary: Caspase cascade activation assay (N-(Ac-DEVD)-N'-ethoxycarbonyl-R110 fluorogenic substrate) in T47D cells
# Type: cell-based, Human
# experimental parameters: 24 h incubation, sigmoidal dose-response, read-out: EC50 (nM) caspase potency
Please provide measured EC50 for the entries that follow.

IN: Return EC50 measured with T47D given this compound: O=C(Nc1ccc(OC(F)(F)F)cc1[N+](=O)[O-])c1ccc(Cl)nc1
OUT: 608 nM

IN: Return EC50 measured with T47D given this compound: COc1ccc(NC(=O)c2ccc(Cl)[n+]([O-])c2)c([N+](=O)[O-])c1
OUT: 7330 nM

====

Please provide measured Caspase activity Ratio for the entries that follow.
# Test system: T47D
# assay summary: Caspase cascade activation assay (N-(Ac-DEVD)-N'-ethoxycarbonyl-R110 fluorogenic substrate) in T47D cells
# Type: cell-based, Human
# experimental parameters: ratio of net RFU of test compound to control, 24 h incubation, 0.16 to 10 μM final
// no unit string in output, number only

IN: Reported Caspase activity Ratio, compound CCOc1ccc(NC(=O)c2ccc(C)nc2)c([N+](=O)[O-])c1 : ____
OUT: 5.5

IN: Reported Caspase activity Ratio, compound O=C(Nc1ccc(C(F)(F)F)cc1[N+](=O)[O-])c1ccc(Cl)nc1 : ____
OUT: 8.9

====

# Tested on: T47D
# assay summary: Caspase cascade activation assay (N-(Ac-DEVD)-N'-ethoxycarbonyl-R110 fluorogenic substrate) in T47D cells
# Assay type: cell-based, Human
# experimental parameters: ratio of net RFU of test compound to control, 24 h incubation, 0.16 to 10 μM final
observed property: Caspase activity Ratio

Please review the entries below; each comes with its answer.
[
  {
    "input smiles": "COc1ccc(NC(=O)c2cccnc2)c([N+](=O)[O-])c1",
    "observed result": 5.8
  },
  {
    "input smiles": "CCOc1ccc(NC(=O)c2ccc(F)nc2)c([N+](=O)[O-])c1",
    "observed result": 7.6
  },
  {
    "input smiles": "COc1ccc(NC(=O)c2cccnc2Cl)c([N+](=O)[O-])c1",
    "observed result": "Inactive"
  },
  {
    "input smiles": "O=C(Nc1ccc(Cl)cc1[N+](=O)[O-])c1ccc(Cl)nc1",
    "observed result": 7.8
  },
  {
    "input smiles": "COc1ccc(NC(=O)c2ccc(Cl)nc2)c([N+](=O)[O-])c1",
    "observed result": 8.1
  }
]

Then there is this molecule:
IN: Return Caspase activity Ratio measured with T47D given this molecule: O=C(Nc1ccc([N+](=O)[O-])cc1[N+](=O)[O-])c1ccc(Cl)nc1
OUT: Inactive

====

# Test system: T47D
# assay summary: Caspase cascade activation assay (N-(Ac-DEVD)-N'-ethoxycarbonyl-R110 fluorogenic substrate) in T47D cells
# Format: cell-based, Human
# experimental parameters: ratio of net RFU of test compound to control, 24 h incubation, 0.16 to 10 μM final
observed property: Caspase activity Ratio

Please review the entries below; each comes with its answer.
[
  {
    "input smiles": "Cc1cc(NC(=O)c2ccc(Cl)nc2)c([N+](=O)[O-])cc1C",
    "tested target": "T47D",
    "Caspase activity Ratio": "Inactive"
  },
  {
    "input smiles": "COc1cc([N+](=O)[O-])c(NC(=O)c2ccc(Cl)nc2)cc1Br",
    "tested target": "T47D",
    "Caspase activity Ratio": "Inactive"
  },
  {
    "input smiles": "O=C(Nc1cc(F)c(F)cc1[N+](=O)[O-])c1ccc(Cl)nc1",
    "tested target": "T47D",
    "Caspase activity Ratio": 2.7
  },
  {
    "input smiles": "COc1ccc(NC(=O)c2ccc(Cl)nc2)cc1",
    "tested target": "T47D",
    "Caspase activity Ratio": "Inactive"
  }
]

IN: Reported Caspase activity Ratio, compound O=C(Nc1ccc(C(=O)c2ccccc2)cc1[N+](=O)[O-])c1ccc(Cl)nc1 : ____
OUT: Inactive

IN: Reported Caspase activity Ratio, compound COc1ccc(NC(=O)c2cc(Cl)nc(Cl)c2)c([N+](=O)[O-])c1 : ____
OUT: Inactive

IN: Reported Caspase activity Ratio, compound O=C(Nc1ccc(OC(F)(F)F)cc1[N+](=O)[O-])c1ccc(Cl)nc1 : ____
OUT: 7.2

IN: Reported Caspase activity Ratio, compound O=C(Nc1ccccc1[N+](=O)[O-])c1ccc(Cl)nc1 : ____
OUT: Inactive

IN: Reported Caspase activity Ratio, compound COc1ccc(NC(=O)c2cnc(Cl)nc2C(F)(F)F)c([N+](=O)[O-])c1 : ____
OUT: Inactive

====

# System: ZR75-1
# assay summary: Caspase cascade activation assay (N-(Ac-DEVD)-N'-ethoxycarbonyl-R110 fluorogenic substrate) in ZR75-1 cells
# Format: cell-based, Human
# experimental parameters: Homo sapiens, ZR-75-1, 24 h incubation, sigmoidal dose-response, read-out: EC50 (nM) caspase potency
# label = bin(measured EC50), where bins are low group = under 300 nM, middle group = from 300 nM up to 1000 nM, high group = 1000 nM and over

IN: // return the class label for O=C(Nc1ccc(Cl)cc1[N+](=O)[O-])c1ccc(Cl)nc1 [Example 2]
OUT: middle group

IN: // return the class label for O=C(Nc1ccc(OCc2ccccc2)cc1[N+](=O)[O-])c1ccc(Cl)nc1 [Example 25]
OUT: low group

IN: // return the class label for O=C(Nc1ccc(F)cc1[N+](=O)[O-])c1ccc(Cl)nc1 [Example 3]
OUT: high group

IN: // return the class label for COc1ccc(NC(=O)c2ccc(Cl)nc2)c([N+](=O)[O-])c1 [Example 7]
OUT: low group

IN: // return the class label for O=C(Nc1ccc(C(F)(F)F)cc1[N+](=O)[O-])c1ccc(Cl)nc1 [Example 1]
OUT: middle group

IN: // return the class label for CCOc1ccc(NC(=O)c2ccc(Cl)nc2)c([N+](=O)[O-])c1 [Example 8]
OUT: low group

IN: // return the class label for Cc1ccc(NC(=O)c2ccc(Cl)nc2)c([N+](=O)[O-])c1 [Example 9]
OUT: middle group

IN: // return the class label for N#Cc1ccc(NC(=O)c2ccc(Cl)nc2)c([N+](=O)[O-])c1 [Example 21]
OUT: high group

IN: // return the class label for CCOc1ccc(NC(=O)c2ccc(C)nc2)c([N+](=O)[O-])c1 [Example 26]
OUT: low group

IN: // return the class label for O=C(Nc1cc(F)c(F)cc1[N+](=O)[O-])c1ccc(Cl)nc1 [Example 19]
OUT: high group

IN: // return the class label for COc1cc([N+](=O)[O-])c(NC(=O)c2ccc(Cl)nc2)cc1Br [Example 4]
OUT: high group

====

# Tested on: T47D
# assay summary: Caspase cascade activation assay (N-(Ac-DEVD)-N'-ethoxycarbonyl-R110 fluorogenic substrate) in T47D cells
# Type: cell-based, Human
# experimental parameters: ratio of net RFU of test compound to control, 24 h incubation, 0.16 to 10 μM final

[
  {
    "input smiles": "CCOc1ccc(N(C)C(=O)c2ccc(Cl)nc2)c([N+](=O)[O-])c1",
    "Caspase activity Ratio": "Inactive"
  },
  {
    "input smiles": "COc1ccc(NC(=O)c2ccncc2)c([N+](=O)[O-])c1",
    "Caspase activity Ratio": "Inactive"
  },
  {
    "input smiles": "COc1ccc(NC(=O)c2ccc(Cl)nc2)c(C)c1",
    "Caspase activity Ratio": "Inactive"
  }
]
